Target: T1, hIL-18Rα ECD-Fc fusion protein (human, UniProt Q13478 22-329)
T1 construct: extracellular domain; captured on Protein A sensor
T1 sequence (looked up): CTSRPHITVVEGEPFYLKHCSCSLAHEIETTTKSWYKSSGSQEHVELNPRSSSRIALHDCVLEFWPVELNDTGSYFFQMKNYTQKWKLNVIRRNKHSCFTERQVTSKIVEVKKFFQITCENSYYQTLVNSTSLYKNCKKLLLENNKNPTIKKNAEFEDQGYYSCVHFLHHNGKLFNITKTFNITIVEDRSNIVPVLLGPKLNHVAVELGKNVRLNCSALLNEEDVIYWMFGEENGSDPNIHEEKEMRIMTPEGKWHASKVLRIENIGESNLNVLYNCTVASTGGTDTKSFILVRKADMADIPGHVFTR
Assay: BLI (Octet RED96), hIL-18Rα ECD-Fc on Protein A sensor; further: test concentration or dose not given here
Threshold-based label: Response (nm) under 0.09 nm gives Criterion met, Response (nm) not under 0.09 nm gives Criterion not met.

Answered examples (4):
{"BINDER": "IL-18 variant polypeptide M10 (ligand) YFPKLRSKLSVIRNLNDQVLFIDQGNRPLFEDMTDSDCRDNAPRTIFIISMYKQSLWRGMAVTISVKCEKISTLSCENKIISFKEMNPPDSIKDTKSDIIFFQRSVPGHDNKMQFESSSYEGYFLACEKERDLFKLILKKEDELGDRSIMFTVQNED", "CLASSIFICATION": "Criterion met"}
{"BINDER": "IL-18 variant polypeptide M14 (ligand) YFNKLKSKLSVIRNLNDQVLFIDQGNRPLFEDMTDSDCRDNAPRTIFIISMYKPSSSRGMAVTISVKCEKISTLSCENKIISFKEMNPPDRIKDTKSDIIFFQASVPGHDNKMQFESSSYEGYFLACEKERDLFKLILKKEDELGDRSIMFTVQNED", "CLASSIFICATION": "Criterion not met"}
{"BINDER": "IL-18 variant polypeptide M7 (ligand) YFPKLRSKLSVIRNLNDQVLFIDQGNRPLFEDMTDSDCRDNAPRTIFIISMYKHSTARGMAVTISVKCEKISTLSCENKIISFKEMNPPDAIKDTKSDIIFFQRSVPGHDNKMQFESSSYEGYFLACEKERDLFKLILKKEDELGDRSIMFTVQNED", "CLASSIFICATION": "Criterion met"}
{"BINDER": "IL-18 variant polypeptide WM2 (ligand, soluble, E. coli-made) YFPKLRSKLSVIRNLNDQVLFIDQGNRPLFEDMTDSDCRDNAPRTIFIISMYKDSQPRGMAVTISVKCEKISTLSCENKIISFKEMNPPDNIKDTESDIIFFQRSVPGHDNKMQFESSSYEGYFLACEKERDLFKLILKKEDELGDRSIMFTVQNED", "CLASSIFICATION": "Criterion met"}

Please examine the following record next.
Could you please tell me whether Response (nm) recorded for IL-18 variant polypeptide M40 (ligand) YFDKLKSKLSVIRNLNDQVLFIDQGNRPLFEDMTDSDCRDNAPRTIFIISMYKPSSWRGMAVTISVKCEKISTLSCENKIISFKEMNPPDWIKDTKSDIIFFQRSVPGHDNKMQFESSSYEGYFLACEKERDLFKLILKKEDELGDRSIMFTVQNED is less than 0.09 nm?
Criterion not met
